tested on: PPARg:RXRa 90nM:30nM, anti-RXR (NR concentration 90 nM, RXRa partner concentration 30 nM); assay: PBM binding z-score (relative to random genomic background probes); higher = stronger binding; sequences stand for … in GC…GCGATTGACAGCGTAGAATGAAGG
PBM binding z-score listing for selected sequences.
Outcome Measure: PBM binding z-score

> print(dat)
                       sequence.input      outcome.measure  result.number
1  AATACAGGGTCACTAGGCCAGAATAGGTACGAAT  PBM binding z-score           5.33
2  CTCGCAAGGTCGGTTGAGGTGAGTATACGGATAA  PBM binding z-score         -0.159
3  TATAGTTGGTCAAAGGTCACACACTCGAAATGCG  PBM binding z-score           10.9
4  TCTAGTTGATCACGGAGGTCACACACGACGGGTA  PBM binding z-score           2.99
5  CGAACTAGGTCATCCATGACAGTGAATACATTGA  PBM binding z-score            5.8
6  GCGACTGGGGCAAAGCCGGTTACCATAAGGTTGG  PBM binding z-score        -0.0511
